# Test system: rats
# PROTOCOL_TEXT: edematogenic test of Schmidt, et al.
# Type: in vivo, rat
# MEASUREMENT_PARAMETERS: 1.5 mg/kg s.c. once a day on two consecutive days; day 1
*1 amine or outer side, *2 acyl side, *3 side chain or, on linkers, in order; H or OH if unused. Where a SMILES comes first, the peptide text is derived from it. Side-chain parts run from the residue outwards. [ ]: non-standard residue; d: D form. dPhe(4-Cl) = N[C@H](Cc1ccc(Cl)cc1)C(=O)O; d2Nal = N[C@H](Cc1ccc2ccccc2c1)C(=O)O; dCit = NC(=O)NCCC[C@@H](N)C(=O)O; dOrn = NCCC[C@@H](N)C(=O)O; CO = O=C([*:1])[*:2]
// 1st Day FR (full responders: facial edema with edematous extremities), rats lookup, one value per entry
// return a plain number; no unit text

Use the examples below as a reference point.
MOLECULE	NUMERIC_READOUT
CC(=O)N[C@H](Cc1ccc(Cl)cc1)C(=O)N[C@H](Cc1ccc(Cl)cc1)C(=O)N[C@H](Cc1c[nH]c2ccccc12)C(=O)N[C@@H](CO)C(=O)N[C@@H](Cc1ccc(O)cc1)C(=O)N[C@H](CCCNC(=N)N)C(=O)N[C@@H](CC(C)C)C(=O)N[C@@H](CCCNC(=N)N)C(=O)N1CCC[C@H]1C(=O)N[C@H](C)C(N)=O [ORG 30276, reference compound] (Ac-[dPhe(4-Cl)][dPhe(4-Cl)][dW]SY[dR]LRP[dA]-NH2)	0
CC(=O)N[C@H](Cc1ccc2ccccc2c1)C(=O)N[C@H](Cc1ccc(Cl)cc1)C(=O)N[C@H](Cc1c[nH]c2ccccc12)C(=O)N[C@@H](CO)C(=O)N[C@@H](Cc1ccc(O)cc1)C(=O)N[C@H](CCCNC(N)=O)C(=O)N[C@@H](CC(C)C)C(=O)N[C@@H](CCCNC(=N)N)C(=O)N1CCC[C@H]1C(=O)N[C@H](C)C(N)=O [EX III] (Ac-[d2Nal][dPhe(4-Cl)][dW]SY[dCit]LRP[dA]-NH2)	0

Turning to the following molecule.
CCNC(=O)NCCC[C@@H](NC(=O)[C@H](Cc1ccc(O)cc1)NC(=O)[C@H](CO)NC(=O)[C@@H](Cc1c[nH]c2ccccc12)NC(=O)[C@@H](Cc1ccc(Cl)cc1)NC(=O)[C@@H](Cc1ccc2ccccc2c1)NC(C)=O)C(=O)N[C@@H](CC(C)C)C(=O)N[C@@H](CCCNC(=N)N)C(=O)N1CCC[C@H]1C(=O)N[C@H](C)C(N)=O [EX IV] (Ac-[d2Nal][dPhe(4-Cl)][dW]SY[dOrn]([CO-NHEt])LRP[dA]-NH2) yielded 1st Day FR (full responders: facial edema with edematous extremities), rats of 0

----------
# Test system: rats
# PROTOCOL_TEXT: edematogenic test of Schmidt, et al.
# Type: in vivo, rat
# MEASUREMENT_PARAMETERS: 1.5 mg/kg s.c. once a day on two consecutive days; day 1
Where a SMILES comes first, the peptide text is derived from it. [ ]: non-standard residue; d: D form. dPhe(4-Cl) = N[C@H](Cc1ccc(Cl)cc1)C(=O)O; d(hCit) = NC(=O)NCCCC[C@@H](N)C(=O)O
EXPERIMENTAL_ENDPOINT: 1st Day FR (full responders: facial edema with edematous extremities), rats
// return a plain number; no unit text

CC(=O)N[C@H](Cc1ccc(Cl)cc1)C(=O)N[C@H](Cc1ccc(Cl)cc1)C(=O)N[C@H](Cc1c[nH]c2ccccc12)C(=O)N[C@@H](CO)C(=O)N[C@@H](Cc1ccc(O)cc1)C(=O)N[C@H](CCCCNC(N)=O)C(=O)N[C@@H](CC(C)C)C(=O)N[C@@H](CCCNC(=N)N)C(=O)N1CCC[C@H]1C(=O)N[C@H](C)C(N)=O [EX V] (Ac-[dPhe(4-Cl)][dPhe(4-Cl)][dW]SY[d(hCit)]LRP[dA]-NH2) yielded 1st Day FR (full responders: facial edema with edematous extremities), rats of 0
